target: UniProt:P15121; test: Inhibition of human recombinant AKR1B1 expressed in Escherichia coli BL21(DE3)pLysS using L-idose as substrate by NADPH oxidation based absorbance analysis
pIC50: −log10 of the molar value.
Measured Quantity: pIC50

For orientation, consider the following solved cases.
O=C(O)CN1C(=O)/C(=C/c2cccc(OCCCCc3ccccc3)c2)SC1=S | 7.22
O=C(O)CN1C(=O)/C(=C/c2ccc(OCCCCc3ccccc3)cc2)SC1=S | 6.48
O=C(O)CN1C(=O)/C(=C/c2cccc(OCCCc3ccccc3)c2)SC1=S | 7.30
O=C(O)CCN1C(=O)/C(=C/c2ccc(OCCCCc3ccccc3)cc2)SC1=S | 4.22
O=C(O)CCN1C(=O)/C(=C/c2ccc(OCCCOc3ccccc3)cc2)SC1=S | 5.41
O=C(O)CN1C(=O)/C(=C/c2cccc(OCCCOc3ccccc3)c2)SC1=S | 7.10
O=C(O)CCN1C(=O)/C(=C/c2ccc(OCCCc3ccccc3)cc2)SC1=S | 4.42
O=C(O)CCN1C(=O)/C(=C/c2cccc(OCCCCc3ccccc3)c2)SC1=S | 5.68

A = O=C(O)CCN1C(=O)/C(=C/c2cccc(OCCCOc3ccccc3)c2)SC1=S
B = O=C(O)CN1C(=O)/C(=C/c2ccc(OCCCc3ccccc3)cc2)SC1=S
Hey, between A and B which has a smaller measured pIC50? To answer, give the label that identifies your chosen option. A

1 = O=C(O)CN1C(=O)/C(=C/c2ccc(OCCCOc3ccccc3)cc2)SC1=S
2 = O=C(O)CCN1C(=O)/C(=C/c2cccc(OCCCc3ccccc3)c2)SC1=S
Hey, between 1 and 2 which has a smaller measured pIC50? To answer, give the label that identifies your chosen option. 2
